FYI, the data here is from patent US20050070470A1.

Target: somatostatin subtype 2 rat receptor (rat, UniProt P30680 1-369)
Sequence (P30680 whole entry): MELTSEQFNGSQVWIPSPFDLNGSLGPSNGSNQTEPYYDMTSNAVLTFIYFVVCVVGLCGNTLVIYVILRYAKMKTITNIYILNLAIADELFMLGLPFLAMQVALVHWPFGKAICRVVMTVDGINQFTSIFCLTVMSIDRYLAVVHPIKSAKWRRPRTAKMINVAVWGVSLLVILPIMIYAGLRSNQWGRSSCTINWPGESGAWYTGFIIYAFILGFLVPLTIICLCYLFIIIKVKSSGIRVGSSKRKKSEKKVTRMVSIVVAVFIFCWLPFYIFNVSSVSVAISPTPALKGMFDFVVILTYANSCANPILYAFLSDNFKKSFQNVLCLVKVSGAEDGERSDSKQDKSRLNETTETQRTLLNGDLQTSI
Assay: cell-based or functional assay
Bridges are numbered along the chain shown (N, C = ends). Where no end group is shown, it is not given here. [ ]: non-standard residue; d: D form. MTXCOO‑CH2CO = methotrexate-acetyl; Nle = CCCC[C@H](N)C(=O)O; Abu = CC[C@H](N)C(=O)O
Reported IC50 (nM), inhibition of GH release from primary cultures of rat pituitary cells is given for each of the following binders.
Supply the numeric figure in nM, leaving out any unit text.

[
  {
    "binder": "succinate-[dD][dS][dS][dS][dS][dS][Nle][dY][dS]CF[dW]KTCT-NH2 (disulfide 10-15)",
    "obs value": 0.52
  },
  {
    "binder": "[dS][dS][dS][dS][dS]K[dS][dS]CF[dW]KTCT-NH2 (disulfide 9-14; N-terminus assumed; SMILES C[C@@H](O)[C@H](NC(=O)[C@@H]1CSSC[C@H](NC(=O)[C@@H](CO)NC(=O)[C@@H](CO)NC(=O)[C@H](CCCCN)NC(=O)[C@@H](CO)NC(=O)[C@@H](CO)NC(=O)[C@@H](CO)NC(=O)[C@@H](CO)NC(=O)[C@H](N)CO)C(=O)N[C@@H](Cc2ccccc2)C(=O)N[C@H](Cc2c[nH]c3ccccc23)C(=O)N[C@@H](CCCCN)C(=O)N[C@@H]([C@@H](C)O)C(=O)N1)C(N)=O) [D-Ser-D-Ser-D-Ser-D-Ser-D-Ser-L-Lys-D-Ser-D-Ser-cyclo[L-Cys-L-Phe-D-Trp-L-Lys-L-Thr-L-Cys]-L-Thr-NH2]",
    "obs value": 3.29
  },
  {
    "binder": "{MTXCOO‑CH2CO}-[dK][dY]K[dY][dK]CF[dW]KTCT-NH2 (cysteine pairing not given here) [MTXCOO-CH2CO-D-Lys-D-Tyr-Lys-D-Tyr-D-Lys-Cys-Phe-D-Trp-Lys-Thr-Cys-Thr-NH2]",
    "obs value": 0.62
  },
  {
    "binder": "[dS][dS][dS][dS][dS][Nle][dY][dS]CF[dW]KTCT-NH2 (disulfide 9-14; N-terminus assumed; SMILES CCCC[C@H](NC(=O)[C@@H](CO)NC(=O)[C@@H](CO)NC(=O)[C@@H](CO)NC(=O)[C@@H](CO)NC(=O)[C@H](N)CO)C(=O)N[C@H](Cc1ccc(O)cc1)C(=O)N[C@H](CO)C(=O)N[C@H]1CSSC[C@@H](C(=O)N[C@H](C(N)=O)[C@@H](C)O)NC(=O)[C@H]([C@@H](C)O)NC(=O)[C@H](CCCCN)NC(=O)[C@@H](Cc2c[nH]c3ccccc23)NC(=O)[C@H](Cc2ccccc2)NC1=O)",
    "obs value": 0.094
  },
  {
    "binder": "[dS][dS][dS][dS][dS]K[dY][dY]CF[dW]KTCT-NH2 (disulfide 9-14; N-terminus assumed; SMILES C[C@@H](O)[C@H](NC(=O)[C@@H]1CSSC[C@H](NC(=O)[C@@H](Cc2ccc(O)cc2)NC(=O)[C@@H](Cc2ccc(O)cc2)NC(=O)[C@H](CCCCN)NC(=O)[C@@H](CO)NC(=O)[C@@H](CO)NC(=O)[C@@H](CO)NC(=O)[C@@H](CO)NC(=O)[C@H](N)CO)C(=O)N[C@@H](Cc2ccccc2)C(=O)N[C@H](Cc2c[nH]c3ccccc23)C(=O)N[C@@H](CCCCN)C(=O)N[C@@H]([C@@H](C)O)C(=O)N1)C(N)=O) [D-Ser-D-Ser-D-Ser-D-Ser-D-Ser-L-Lys-D-Tyr-D-Tyr-cyclo[L-Cys-L-Phe-D-Trp-L-Lys-L-Thr-L-Cys]-L-Thr-NH2]",
    "obs value": 0.14
  }
]

IC50 (nM), inhibition of GH release from primary cultures of rat pituitary cells reported for this binder succinate-[dS][dS][dS][dS][dS][Abu][dY][dS]CF[dW]KTCT-NH2 (disulfide 9-14) : 0.61
